Overview of reported HVA Ratio across a group of molecules:
Tested on: brain level of homovanillic acid (HVA)
measurement-description: Effect of Drug Compounds on Brain Level of Homovanillic Acid (HVA)
Type: in vivo, male Long Evans rats
condition-summary: ratio to HVA level in control group (1.0); rat brain minus cerebella, 0.15 mmoles/kg i.p. standard dose, 2 or 3 hours; only ratios greater than 1.6 considered of practical significance

# annotated cases, reported HVA Ratio shown
1. OCCOCCOCCN1CCN(C2=Nc3cc(Cl)ccc3Nc3ccccc32)CC1 = 1.4
2. OCCOCCN1CCN(C2=Nc3cc(Cl)ccc3Nc3ccccc32)CC1 = 2.8
3. CCCCCCCCCCCCCCCC(=O)OCCOCCN1CCN(C2=Nc3cc(Cl)ccc3Nc3ccccc32)CC1 = 1.0

Attention now shifts to the item below.
[in] // map `COCCOCCN1CCN(C2=Nc3cc(Cl)ccc3Nc3ccccc32)CC1` to recorded HVA Ratio (system: brain level of homovanillic acid (HVA))
[out] 3.1

Hey, just so you know, these numbers are from patent US4097597A.
